Tested on: UO-31 renal
Experiment: NCI tumour cell line growth inhibition, 48 h
Answer each item with its documented TGI.

Which measured TGI value corresponds to CCN(CC)CC(C(=O)Nc1c(C)cccc1C)/C(C)=N/NC(N)=S (stereo unspecified) ?
> 100 µM

Now try CC(=O)NC1C(=O)CC(c2ccccc2)N(C)C1c1ccccc1 (stereo unspecified) .
> 100 µM

Now try COC(=O)c1c(OC(=O)c2ccccc2)noc1CC(=O)OC1C=CCCC1 (stereo unspecified) .
> 100 µM

Now try O=[N+]([O-])c1ccc(-c2ccc(C3=Nn4c(nnc4-c4ccc(Cl)cc4)SC3)o2)cc1 .
> 100 µM

Now try S=C(N/N=C/c1ccccc1)NC1CC(c2ccccc2)Oc2ccccc21 (stereo unspecified) .
> 100 µM

Now try O=C1C2=C(Nc3cc([N+](=O)[O-])ccc3N2)OC1c1c[nH]c2ccc(COc3ccccc3)cc12 (stereo unspecified) .
> 100 µM

* * *

System: SF-268 CNS
Experiment: NCI tumour cell line growth inhibition, 48 h
RECORDED METRIC: TGI (µM)
Provide only the numeric value, understood in µM.

Which measured TGI value corresponds to Cc1c2cccc-2c(N(C)C)cc2c1[nH]c1ccccc12 ?
16.7

Now try C[CH2][Ge]1([CH2]C)[CH2]CC2(CCN(CCCN(C)C)C2)C[CH2]1 .
3.96

Now try COC(=O)C(I(OS(=O)(=O)c1ccc(C)cc1)c1ccccc1)=P(c1ccccc1)(c1ccccc1)c1ccccc1 .
33.4

Now try CN(C)c1ccc(/C=C/C(=O)c2ccc(Nc3nc(Nc4ccc(F)cc4)nc(Nc4ccc(Cl)cc4)n3)cc2)cc1 .
63.6

* * *

Test system: 786-0 renal
Experiment: NCI tumour cell line growth inhibition, 48 h
RECORDED METRIC: TGI

Which measured TGI value corresponds to COC(=O)[C@@H](C)C[C@H](Cc1ccccc1)NC(=O)c1cccc([C@@H](C[C@H](C(C)C)N(C)C(=O)[C@@H](NC(=O)[C@H]2CCCCN2C)C(C)C)OC(C)=O)n1 ?
> 16.7 µM

Now try COc1ccc(/C=N/NC(=O)c2ccccc2Nc2ccccc2C(=O)N/N=C/c2ccc(OC)c(OC)c2)cc1OC .
> 100 µM

Now try CC(=O)/C=C\C(=O)NNS(=O)(=O)c1ccc(C)cc1 .
> 100 µM

* * *

Tested on: UACC-257 melanoma
Experiment: NCI tumour cell line growth inhibition, 48 h
RECORDED METRIC: TGI

Which measured TGI value corresponds to COc1c(-c2ccc3c(c2)OCO3)oc2cc3c(c(OC)c2c1=O)OCO3 ?
> 100 µM

Now try Cc1ccc(S(=O)(=O)NC2(C=O)CCC(C(C)(C)C)CC2)cc1 (stereo not drawn) .
> 100 µM

Now try CCCCCC1C2C(=O)NC(=O)C1C(=O)NC2=O (stereo not drawn) .
> 100 µM

* * *

Test system: CAKI-1 renal
Experiment: NCI tumour cell line growth inhibition, 48 h
RECORDED METRIC: TGI

Provide value of TGI for this record tested with CAKI-1 renal: O=C1C2=C(Nc3cc([N+](=O)[O-])ccc3N2)OC1c1c[nH]c2ccc(COc3ccccc3)cc12 (stereo not drawn)
> 100 µM

Now try O=C(c1ccccc1)c1cc(-c2ccccc2)c(-c2ccccc2)[nH]c(=O)c1=O .
> 100 µM

Now try O=S(=O)(N1CCCCN(S(=O)(=O)C(F)(F)F)CCCN(S(=O)(=O)C(F)(F)F)CCCN(S(=O)(=O)C(F)(F)F)CCCCN(S(=O)(=O)C(F)(F)F)CCCN(S(=O)(=O)C(F)(F)F)CCC1)C(F)(F)F .
> 100 µM

The reported measurements were obtained from PubChem BioAssay (NCI).
